Cited source for all entries: ChEMBL document CHEMBL2384922

- METHOD: AUC (0 to 24 hrs) in rat at 100 mg/kg, po administered in 0.75% methocel vehicle as suspension
- Format: ADME, organism-based
- Parameters: time < 24 hr, dose 100 mg/kg, route oral
- EXPERIMENTAL CONTEXT: plasma
REPORTED METRIC: AUC(0-t) at 24 h (µM·h)
Numbers only, in µM·h.

Qu. Please report the measured AUC(0-t) at 24 h for CCCNC(=O)c1cn2ncnc(Nc3cc(C(=O)NC4CC4)ccc3C)c2c1C
Ans. 5.6

====

- METHOD: Aqueous solubility of the compound at pH 1
- Type: physicochemical
REPORTED METRIC: solubility (µg/mL)
One number for each entry, in µg/mL.

// each listed compound needs a value for solubility
1. CCCNC(=O)c1cn2ncnc(N(C(=O)OCOC(=O)/C=C/C(=O)O)c3cc(C(=O)NC4CC4)ccc3C)c2c1C
2. CCCNC(=O)c1cn2ncnc(Nc3cc(C(=O)N(C(=O)OCOC(=O)/C=C/C(=O)O)C4CC4)ccc3C)c2c1C
3. CCCN(C(=O)OCOC(=O)/C=C/C(=O)O)C(=O)c1cn2ncnc(Nc3cc(C(=O)NC4CC4)ccc3C)c2c1C

Ans.
1: 8; 2: 166; 3: 1180
